- target-under-test: Papain (Carica papaya)
quantity-name: pKi
Quick note: pKi values are minus log10 of concentrations in mol/L.

Note to self: pKi of "CC(C)(C)OC(=O)N[C@@H](Cc1ccsc1)C(=O)NCC#N" with Papain (Carica papaya) was 4.35
